Quick record of MIC values for Staphylococcus aureus ATCC 25923.
PROPERTY NAME: MIC

[[record]]
compound_smiles = "CC[C@H](C)[C@H](NC(=O)[C@@H](NC(=O)[C@@H](NC(=O)[C@H](CCCN=C(N)N)NC(=O)[C@@H](NC(=O)[C@H](CCCN=C(N)N)NC(=O)[C@H](Cc1c[nH]c2ccccc12)NC(=O)[C@H](CCCCN)NC(=O)[C@@H](N)Cc1c[nH]c2ccccc12)C(C)C)C(C)C)[C@@H](C)O)C(=O)O"
subject_of_test = "Staphylococcus aureus ATCC 25923"
property_name = "MIC"
test_value = "2.7 µM"

[[record]]
compound_smiles = "CC[C@H](C)[C@H](NC(=O)[C@H](CCCN=C(N)N)NC(=O)[C@H](Cc1ccccc1)NC(=O)[C@H](CCCN=C(N)N)NC(=O)[C@@H](N)C(C)C)C(=O)N[C@@H](CCCN=C(N)N)C(=O)N[C@H](C(=O)N[C@@H](C)C(=O)N[C@H](C(=O)N[C@H](C(=O)N[C@@H](CCCN=C(N)N)C(=O)N[C@@H](C)C(N)=O)[C@@H](C)CC)C(C)C)C(C)C"
subject_of_test = "Staphylococcus aureus ATCC 25923"
property_name = "MIC"
test_value = "8.24 µM"

